Sourced from patent US20150105252A1

# Test system: foxtail, giant
# experiment.description: Test A preemergence
# Type: in vivo, Setaria faberii
# measurement.context: preemergence, 125 g ai/ha, visual injury approx. 10 days after treatment
test.readout: Foxtail, Giant plant response rating (0 to 100 scale)

CCONC(=O)c1cc(CC)n(Cc2cc(C(F)(F)F)nn2C(C)C)n1 = 0
CCCCc1cc(C(=O)NOCC)nn1Cc1ccnc(C(F)(F)F)c1 = 10
O=C(NCC(F)(F)F)c1cc(Br)n(Cc2cccc(C(F)(F)F)c2)n1 = 0
CCc1cc(C(=O)NCC(F)(F)F)nn1Oc1cccc(C(F)(F)F)c1 [Compound 218] = 0
O=C(NC1CC1)c1cc(CCF)n(Cc2ccnc(C(F)(F)F)c2)n1 = 90
COCc1cc(C(=O)NCC(F)(F)F)nn1Cc1cc(C(F)(F)C(F)(F)F)nn1C = 20
CCCc1cc(C(=O)NC(C)C)nn1Cc1ccnc(C(F)(F)F)c1 = 100
CCCNC(=O)c1cc(OCC)n(Cc2ccnc(C(F)(F)F)c2)n1 = 100
CCCNC(=O)c1cc(Br)n(Cc2cccc(C(F)(F)F)c2)n1 = 0

----------
Quick reference for Oat, Wild plant response rating among some compounds
# Tested on: oat, wild
# experiment.description: Test C postemergence
# Assay type: in vivo, Avena fatua
# measurement.context: postemergence, 62 g ai/ha; scale 0 to 100
# Source text: […]
test.readout: Oat, Wild plant response rating

CCCNC(=O)c1cc(CC)n(Cc2ccnc(C(F)(F)F)c2)n1 = 5
CCc1cc(C(=O)NC2CC2)nn1Cc1ccnc(C(F)(F)F)c1 = 5
CCONC(=O)c1cc(CC)n(Cc2cccc(OC(F)(F)F)c2)n1 = 5
CCCNC(=O)c1cc(CC)n(Cc2nc(C(F)(F)F)nn2C)n1 = 5
CCc1cc(C(=O)NCC(F)(F)F)nn1Cc1ccnc(SC(F)(F)F)c1 = 15
CCc1cc(C(=O)NCC(F)(F)F)nn1Cc1cc(C(F)(F)F)nn1C = 10
CCONC(=O)c1cc(CC)n(Cc2ccnc(C(F)(F)F)c2)n1 = 5
CCCc1cc(C(=O)NC(C)C)nn1Cc1ccnc(C(F)(F)F)c1 = 35
CCCNC(=O)c1cc(OCC)n(Cc2ccnc(C(F)(F)F)c2)n1 = 15

----------
# Test system: ragweed
# experiment.description: Test C preemergence
# Format: in vivo, Ambrosia elation
# measurement.context: preemergence, 31 g ai/ha; visual rating, scale 0 to 100 (0 no effect, 100 complete control), 13 to 15 days
test.readout: Ragweed plant response rating

CCc1cc(C(=O)NOC(C)C)nn1Cc1ccnc(OC(F)F)c1 = 70
CCc1cc(C(=O)NCC(F)(F)F)nn1Cc1ccnc(SC(F)(F)F)c1 = 85
CCCNC(=O)c1cc(OCC)n(Cc2ccnc(C(F)(F)F)c2)n1 = 80
CCNC(=O)c1cc(CCF)n(Cc2ccnc(C(F)(F)F)c2)n1 = 70
CCONC(=O)c1cc(CC)n(Cc2ccnc(OC(F)F)c2)n1 = 75
O=C(NCC(F)(F)F)c1cc(CCF)n(Cc2ccnc(C(F)(F)F)c2)n1 = 80

----------
# System: barnyardgrass
# experiment.description: Test A postemergence
# Format: in vivo, Echinochloa crus-galli
# measurement.context: Postemergence, 500 g ai/ha; 0 to 100 scale (0 no effect, 100 complete control)
test.readout: Barnyardgrass plant response rating

CCCNC(=O)c1cc(Br)n(Cc2cccc(C(F)(F)F)c2)n1 [Compound 159] = 30
CCCNC(=O)c1cc(CCF)n(Cc2ccnc(C(F)(F)F)c2)n1 [Compound 177] = 100
CCCNC(=O)c1cc(CC)n(Cc2cc(C(F)(F)C(F)(F)F)nn2C)n1 [Compound 229] = 90
CCCc1cc(C(=O)NC2CC2)nn1Cc1ccnc(OC(F)F)c1 [Compound 205] = 90
CCCCc1cc(C(=O)NOCC)nn1Cc1ccnc(C(F)(F)F)c1 [Compound 152] = 50
O=C(NCC(F)(F)F)c1cc(CCF)n(Cc2ccnc(C(F)(F)F)c2)n1 [Compound 175] = 90
CCONC(=O)c1cc(CC)n(Cc2cc(OC(F)F)nn2C)n1 [Compound 207] = 80
O=C(NC1CC1)c1cc(I)n(Cc2cccc(C(F)(F)F)c2)n1 [Compound 180] = 30
O=C(NCC(F)(F)F)c1cc(Cl)n(Cc2cccc(C(F)(F)F)c2)n1 [Compound 170] = 30
CCOc1cc(C(=O)NOC(C)C)nn1Cc1ccnc(C(F)(F)F)c1 [Compound 153] = 100
CCCNC(=O)c1cc(CC)n(Oc2cccc(C(F)(F)F)c2)n1 [Compound 216] = 70
CCc1cc(C(=O)NCC(F)(F)F)nn1Oc1cccc(C(F)(F)F)c1 [Compound 218] = 20
CCCNC(=O)c1cc(OCC)n(Cc2ccnc(C(F)(F)F)c2)n1 [Compound 187] = 90
CCc1cc(C(=O)NC(C)C)nn1Cc1cc(C(F)(F)F)nn1CC [Compound 120] = 90
CCc1cc(C(=O)NCC(F)(F)F)nn1Cc1nc(C(F)(F)F)no1 [Compound 184] = 60
CCCNC(=O)c1cc(COC)n(Cc2ccnc(C(F)(F)F)c2)n1 [Compound 168] = 90
CCCNC(=O)c1cc(OCC)n(Cc2ccnc(OC(F)F)c2)n1 [Compound 136] = 90
CCc1cc(C(=O)NC2CC2)nn1Cc1ccnc(Br)c1 [Compound 220] = 100
CCc1cc(C(=O)NC2CC2)nn1Cc1cc(C(F)(F)F)nn1C(C)C [Compound 212] = 10
